Tested on: HCV 1b-377-neo replicon cells
measurement-protocol: HCV Replicon assay, HCV 1b genotype
Format: cell-based
details: Hepatitis C virus, class symbol, read-out: EC50 range against HCV 1b
Procedure: An HCV Replicon assay was utilized in the present disclosure, and was prepared, conducted and validated as described in commonly owned PCT/US2006/022197 and in O'Boyle et. al. Antimicrob Agents Chemother. 2005 April; 49(4): 1346-53. HCV 1b-377-neo replicon cells were used to test the currently described compound series as well as cells resistant to compound A containing a Y2065H mutation in NS5A (described in application PCT/US2006/022197). […]
Measured EC50 accompanies every entry in the list below.

| compound | EC50 |
| --- | --- |
| COCC[C@H](NC(=O)OC)C(=O)N1CCC[C@H]1c1ncc(-c2ccc3c4ccc(-c5cnc([C@@H]6CCCN6C(=O)[C@H](CCOC)NC(=O)OC)[nH]5)cc4n(S(=O)(=O)c4ccccc4)c3c2)[nH]1 | 0.001 to 0.1 nM |
| COCCn1c2cc(-c3cnc([C@@H]4CCCN4C(=O)[C@H](C)NC(=O)OC)[nH]3)ccc2c2ccc(-c3cnc([C@@H]4CCCN4C(=O)[C@H](C)NC(=O)OC)[nH]3)cc21 | 1 to 99 nM |
| COC(=O)N[C@H](C(=O)N1CCC[C@H]1c1ncc(-c2ccc3c4ccc(-c5cnc([C@@H]6CCCN6C(=O)[C@@H](NC(=O)OC)C(C)C)[nH]5)cc4n(S(=O)(=O)c4ccccc4)c3c2)[nH]1)C(C)C | 0.001 to 0.1 nM |
| COC(=O)N[C@@H](C)C(=O)N1CCC[C@H]1c1ncc(-c2ccc3c4ccc(-c5cnc([C@@H]6CCCN6C(=O)[C@H](C)NC(=O)OC)[nH]5)cc4n(S(=O)(=O)c4ccccc4)c3c2)[nH]1 | 0.001 to 0.1 nM |
| COCCn1c2cc(-c3cnc([C@@H]4CCCN4C(=O)[C@@H](NC(=O)OC)C(C)C)[nH]3)ccc2c2ccc(-c3cnc([C@@H]4CCCN4C(=O)[C@@H](NC(=O)OC)C(C)C)[nH]3)cc21 | 0.001 to 0.1 nM |
| COC(=O)N[C@H](C(=O)N1CCC[C@H]1c1ncc(-c2ccc3c(c2)Cc2cc(-c4cnc([C@@H]5CCCN5C(=O)[C@@H](NC(=O)OC)[C@@H](C)OC)[nH]4)ccc2-3)[nH]1)[C@@H](C)OC | 0.001 to 0.1 nM |
| CCN(CC)C(C(=O)N1CCC[C@H]1c1ncc(-c2ccc3c(c2)COCc2cc(-c4cnc([C@@H]5CCCN5C(=O)C(c5ccccc5)N(CC)CC)[nH]4)ccc2-3)[nH]1)c1ccccc1 (stereo in doubt) | 0.101 to 0.999 nM |
| COC(=O)N[C@H](C(=O)N1CCC[C@H]1c1ncc(-c2ccc3c(c2)COCc2cc(-c4cnc([C@@H]5CCCN5C(=O)[C@@H](NC(=O)OC)C(C)C)[nH]4)ccc2-3)[nH]1)C(C)C | 0.001 to 0.1 nM |
| COC(=O)N[C@H](C(=O)N1CCC[C@H]1c1ncc(-c2ccc3c(c2)oc2cc(-c4cnc([C@@H]5CCCN5C(=O)[C@@H](NC(=O)OC)C(C)(C)C)[nH]4)ccc23)[nH]1)C(C)(C)C | 0.001 to 0.1 nM |
| COC(=O)N[C@@H](C)C(=O)N1CCC[C@H]1c1ncc(-c2ccc3c4ccc(-c5cnc([C@@H]6CCCN6C(=O)[C@H](C)NC(=O)OC)[nH]5)cc4n(C)c3c2)[nH]1 | 1 to 99 nM |
| COC(=O)N[C@H](C(=O)N1CCC[C@H]1c1ncc(-c2ccc3c(c2)oc2cc(-c4cnc([C@@H]5CCCN5C(=O)[C@@H](NC(=O)OC)C(C)(C)O)[nH]4)ccc23)[nH]1)C(C)(C)O | 0.001 to 0.1 nM |
| COC(=O)N[C@H](C(=O)N1CCC[C@H]1c1ncc(-c2ccc3c(c2)C(N(C)C)c2cc(-c4cnc([C@@H]5CCCN5C(=O)[C@@H](NC(=O)OC)C(C)C)[nH]4)ccc2-3)[nH]1)C(C)C | 0.101 to 0.999 nM |
| CCN(CC)C(C(=O)N1CCC[C@H]1c1ncc(-c2ccc3c(c2)CN(C)Cc2cc(-c4cnc([C@@H]5CCCN5C(=O)C(c5ccccc5)N(CC)CC)[nH]4)ccc2-3)[nH]1)c1ccccc1 (stereo in doubt) | 0.101 to 0.999 nM |
| COC(=O)N[C@H](C(=O)N1CCC[C@H]1c1ncc(-c2ccc3c(c2)oc2cc(-c4cnc([C@@H]5CCCN5C(=O)[C@@H](NC(=O)OC)C(C)C)[nH]4)ccc23)[nH]1)C(C)C | 0.001 to 0.1 nM |
| COC(=O)N[C@H](C(=O)N1CCC[C@H]1c1ncc(-c2ccc3c(c2)COCc2cc(-c4cnc([C@@H]5CCCN5C(=O)[C@@H](NC(=O)OC)C5CCOCC5)[nH]4)ccc2-3)[nH]1)C1CCOCC1 | 0.101 to 0.999 nM |
| COCC[C@H](NC(=O)OC)C(=O)N1CCC[C@H]1c1ncc(-c2ccc3c(c2)[nH]c2cc(-c4cnc([C@@H]5CCCN5C(=O)[C@H](CCOC)NC(=O)OC)[nH]4)ccc23)[nH]1 | 1 to 99 nM |
| COC(=O)N[C@H](C(=O)N1CCC[C@H]1c1ncc(-c2ccc3c(c2)[nH]c2cc(-c4cnc([C@@H]5CCCN5C(=O)[C@@H](NC(=O)OC)C(C)C)[nH]4)ccc23)[nH]1)C(C)C | 0.101 to 0.999 nM |
| COC(=O)N[C@@H](C)C(=O)N1CCC[C@H]1c1ncc(-c2ccc3c(c2)COCc2cc(-c4cnc([C@@H]5CCCN5C(=O)[C@H](C)NC(=O)OC)[nH]4)ccc2-3)[nH]1 | 0.001 to 0.1 nM |

----------
System: HCV 1b-377-neo replicon cells
measurement-protocol: HCV Replicon assay, HCV 1b genotype
Format: cell-based
details: Hepatitis C virus, class symbol, read-out: EC50 range against HCV 1b
measurement-name: EC50

| compound | result |
| --- | --- |
| COC(=O)N[C@H](C(=O)N1CCC[C@H]1c1ncc(-c2ccc3c(c2)C(O)c2cc(-c4cnc([C@@H]5CCCN5C(=O)[C@@H](NC(=O)OC)C(C)C)[nH]4)ccc2-3)[nH]1)C(C)C [Example 2] | 0.101 to 0.999 nM |
| COC(=O)N[C@H](C(=O)N1CCC[C@H]1c1ncc(-c2ccc3c(c2)C(C)(N(C)C)c2cc(-c4cnc([C@@H]5CCCN5C(=O)[C@@H](NC(=O)OC)C(C)C)[nH]4)ccc2-3)[nH]1)C(C)C [Example 13] | 0.001 to 0.1 nM |
| COC(=O)N[C@H](C(=O)N1CCC[C@H]1c1ncc(-c2ccc3c(c2)C(C)(C)c2cc(-c4cnc([C@@H]5CCCN5C(=O)[C@@H](NC(=O)OC)C(C)C)[nH]4)ccc2-3)[nH]1)C(C)C [Example 14] | 0.001 to 0.1 nM |
| COC(=O)N[C@H](C(=O)N1CCC[C@H]1c1ncc(-c2ccc3c(c2)oc2cc(-c4cnc([C@@H]5CCCN5C(=O)[C@@H](NC(=O)OC)C5CC5)[nH]4)ccc23)[nH]1)C1CC1 [Example 19] | 0.001 to 0.1 nM |
| COC(=O)N[C@@H](C)C(=O)N1CCC[C@H]1c1ncc(-c2ccc3c(c2)C2(CCC2)c2cc(-c4cnc([C@@H]5CCCN5C(=O)[C@H](C)NC(=O)OC)[nH]4)ccc2-3)[nH]1 [Example 17] | 0.001 to 0.1 nM |
| COC(=O)N[C@H](C(=O)N1CCC[C@H]1c1ncc(-c2ccc3c(c2)Cc2cc(-c4cnc([C@@H]5CCCN5C(=O)[C@@H](NC(=O)OC)C(C)C)[nH]4)ccc2-3)[nH]1)C(C)C [Example 4] | 0.001 to 0.1 nM |

----------
Test system: HCV 1b-377-neo replicon cells
measurement-protocol: HCV Replicon assay, HCV 1b genotype
Type: cell-based
details: class symbol, read-out: EC50 range against HCV 1b
pEC50: −log10 of the molar value.
measurement-name: pEC50

| sample-smiles | result |
| --- | --- |
| COC(=O)N[C@H](C(=O)N1CCC[C@H]1c1ncc(-c2ccc3c4ccc(-c5cnc([C@@H]6CCCN6C(=O)[C@@H](NC(=O)OC)[C@@H](C)OC)[nH]5)cc4n(C)c3c2)[nH]1)[C@@H](C)OC | 10.00 to 12.00 |
| COCC[C@H](NC(=O)OC)C(=O)N1CCC[C@H]1c1ncc(-c2ccc3c4ccc(-c5cnc([C@@H]6CCCN6C(=O)[C@H](CCOC)NC(=O)OC)[nH]5)cc4n(C)c3c2)[nH]1 | 9.00 to 10.00 |
